- Study system: Mitogen-activated protein kinase kinase kinase 8 (Homo sapiens, UniProt P41279)
- Sequence (P41279 whole entry): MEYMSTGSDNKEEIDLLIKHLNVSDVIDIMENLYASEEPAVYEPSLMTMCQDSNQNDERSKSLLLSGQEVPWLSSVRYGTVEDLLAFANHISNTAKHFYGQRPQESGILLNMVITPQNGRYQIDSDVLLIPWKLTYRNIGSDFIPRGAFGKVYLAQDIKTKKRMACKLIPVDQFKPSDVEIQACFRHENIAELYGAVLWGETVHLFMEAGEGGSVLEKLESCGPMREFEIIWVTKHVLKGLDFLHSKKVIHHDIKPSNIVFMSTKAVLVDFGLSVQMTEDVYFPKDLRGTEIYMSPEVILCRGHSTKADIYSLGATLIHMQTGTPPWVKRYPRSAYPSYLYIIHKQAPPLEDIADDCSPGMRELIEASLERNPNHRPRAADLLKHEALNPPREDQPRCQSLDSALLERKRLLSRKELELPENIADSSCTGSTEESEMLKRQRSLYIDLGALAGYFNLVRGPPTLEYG
- Test protocol: Inhibition of COT by cell-based HTRF assay
pIC50: −log10 of the molar value.
Measure: pIC50

I. Clc1ccc(-c2ccc(Oc3cncc4sc(-c5nn[nH]n5)cc34)cc2)cc1
II. c1ccc(-c2ccc(Oc3cncc4sc(-c5nn[nH]n5)cc34)cc2)cc1
# input # query: argmin of pIC50 over I and II Pick one; state its label.
# output II
(II: 5.37, I: 5.68)

###

- Study system: Mitogen-activated protein kinase kinase kinase 8 (Homo sapiens, UniProt P41279)
- Test protocol: Inhibition of human recombinant COT by HTRF-based assay
Measure: IC50 (nM)

| Chemical structure | IC50 / nM |
| --- | --- |
| NC(=O)c1ccc(-c2ccc(Oc3cncc4sc(-c5nn[nH]n5)cc34)cc2)cc1 | 10 |
| Clc1cccc(-c2ccc(Oc3cncc4sc(-c5nn[nH]n5)cc34)cc2)c1 | 120 |
| COc1ccc(-c2ccc(Oc3cncc4sc(-c5nn[nH]n5)cc34)cc2)cc1 | 130 |
| Clc1ccc(-c2ccc(Oc3cncc4sc(-c5nn[nH]n5)cc34)cc2)cc1 | 90 |
| Brc1ccc(Oc2cncc3sc(-c4nnn[nH]4)cc23)cc1 | 1600 |
| Clc1ccc(Oc2cncc3sc(-c4nnn[nH]4)cc23)cc1 | 710 |
| FC(F)(F)c1ccc(-c2ccc(Oc3cncc4sc(-c5nn[nH]n5)cc34)cc2)cc1 | 280 |
| CN(C)C(=O)c1ccc(-c2ccc(Oc3cncc4sc(-c5nn[nH]n5)cc34)cc2)cc1 | 50 |
| c1ccc(-c2ccc(Oc3cncc4sc(-c5nn[nH]n5)cc34)cc2)cc1 | 150 |
| c1ccc(-c2cccc(Oc3cncc4sc(-c5nn[nH]n5)cc34)c2)cc1 | 1700 |

I. COc1ccccc1-c1ccc(Oc2cncc3sc(-c4nnn[nH]4)cc23)cc1
II. c1ccc(Oc2cncc3sc(-c4nn[nH]n4)cc23)cc1
# input # query: argmin of IC50 over I and II Pick one; state its label.
# output I

###

- Study system: Mitogen-activated protein kinase kinase kinase 8 (Homo sapiens)
- Test protocol: Inhibition of human recombinant COT by HTRF-based assay
Measure: IC50 (nM)

| Chemical structure | IC50, nM |
| --- | --- |
| Nc1ccc(-c2ccc(Oc3cncc4sc(-c5nn[nH]n5)cc34)cc2)cc1 | 230 |
| Ic1ccc(Oc2cncc3sc(-c4nn[nH]n4)cc23)cc1 | 410 |

1. COc1cccc(-c2ccc(Oc3cncc4sc(-c5nnn[nH]5)cc34)cc2)c1
2. O=c1nc(-c2cc3c(Oc4ccc(I)cc4)cncc3s2)[nH]o1
3. Cc1ccc(Oc2cncc3sc(-c4nn[nH]n4)cc23)cc1
4. c1ccc(-c2ccccc2Oc2cncc3sc(-c4nn[nH]n4)cc23)cc1
# input Let's sort these by IC50, smallest first. Go ahead? Respond with the label ranking, as requested.
# output 1, 2, 3, 4
(1: 240 nM, 2: 1120 nM, 3: 7500 nM, 4: 15000 nM)
